protocol description: Aqueous solubility (24 hour equilibrated suspension in water, HPLC)
Assay type: physicochemical
test conditions: water, 24 hour at ambient
measured attribute: solubility thermodynamic at 24 h (µg/mL)
# unit: µg/mL | format: bare number

Q: State its solubility thermodynamic at 24 h: CN1CCN(C(=O)O[C@H]2c3nccnc3C(=O)N2c2ccc(Cl)cn2)CC1.O=C(O)/C=C\C(=O)O [Maleate, (S)-Zopiclone Maleate]
A: 9000
